Target: hPD-L1 (antigen of the Biacore assay) (human, UniProt Q9NZQ7 19-238, limits assumed)
Sequence (Q9NZQ7 19-238 limits assumed): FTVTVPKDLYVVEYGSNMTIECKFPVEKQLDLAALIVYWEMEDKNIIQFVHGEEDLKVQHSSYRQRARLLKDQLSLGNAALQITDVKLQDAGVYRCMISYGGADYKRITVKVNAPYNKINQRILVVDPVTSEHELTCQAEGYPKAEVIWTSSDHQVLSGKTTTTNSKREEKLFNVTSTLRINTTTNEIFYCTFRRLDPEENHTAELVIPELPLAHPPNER
Experiment: SPR (Biacore), antibody captured on anti-human Fc, antigen in flow
MEASURED METRIC: Kd (nM)
Express it in nM; write the number only.

Could you share which Kd value was measured for 23A11-H3L3 (antibody, V domains shown, Humanized; also called humanized 23A11 H3L3) VH: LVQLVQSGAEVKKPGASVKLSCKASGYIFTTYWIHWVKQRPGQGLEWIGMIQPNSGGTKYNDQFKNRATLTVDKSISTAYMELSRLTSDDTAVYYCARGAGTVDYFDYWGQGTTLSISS VL: DIVLTQSPASLAVSVGQRATITCRASESVDIYGNSFMHWYQQKPGQSPKLLIYRASNLESGIPARFSGSGSRTDFTLTINPVEANDTATYYCHQSNDDPYTFGGGTKLETK ?
74.1
